biological target: b-Raf (V600E) (Homo sapiens (Human), UniProt P15056, V600E); details: read-out: b-Raf IC-50; AlphaScreen, 60 min pre-incubation, reaction 3 hours at room temperature
Sequence (P15056 whole entry V600E): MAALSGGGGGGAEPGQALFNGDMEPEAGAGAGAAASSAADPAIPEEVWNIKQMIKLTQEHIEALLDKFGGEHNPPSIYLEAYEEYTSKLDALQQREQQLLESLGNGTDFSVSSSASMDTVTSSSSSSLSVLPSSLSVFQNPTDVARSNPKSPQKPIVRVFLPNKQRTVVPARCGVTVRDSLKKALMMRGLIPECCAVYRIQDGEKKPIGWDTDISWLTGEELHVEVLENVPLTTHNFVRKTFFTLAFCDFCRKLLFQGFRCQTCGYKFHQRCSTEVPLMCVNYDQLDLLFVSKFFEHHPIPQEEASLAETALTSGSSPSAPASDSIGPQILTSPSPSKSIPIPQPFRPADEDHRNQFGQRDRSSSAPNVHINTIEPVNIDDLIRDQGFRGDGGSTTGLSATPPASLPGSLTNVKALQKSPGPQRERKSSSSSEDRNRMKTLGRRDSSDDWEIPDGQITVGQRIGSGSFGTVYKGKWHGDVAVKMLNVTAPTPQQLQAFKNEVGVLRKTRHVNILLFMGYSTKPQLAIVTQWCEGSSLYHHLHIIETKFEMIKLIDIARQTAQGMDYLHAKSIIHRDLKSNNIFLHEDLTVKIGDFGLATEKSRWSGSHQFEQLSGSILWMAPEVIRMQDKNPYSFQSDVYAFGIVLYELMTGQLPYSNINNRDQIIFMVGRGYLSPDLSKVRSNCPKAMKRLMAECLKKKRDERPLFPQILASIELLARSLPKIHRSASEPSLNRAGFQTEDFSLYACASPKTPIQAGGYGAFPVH
reported_metric: pIC50
pIC50 is a log-scale quantity: -log10 of the concentration expressed in molar.

Solved cases below.
Cc1ccc(NC(=O)c2cccc(C(F)(F)F)c2)cc1-c1cc(NC(=O)C(C)O)nc(N2CCOCC2)c1 (stereo not drawn); 9.24
Cc1ncc(NC(=O)c2ccnc(C(C)(F)F)c2)cc1-c1cc(N2CCOCC2)c(OC(C)C)nn1; 8.65
Cc1ncc(NC(=O)c2cccc(C(F)(F)F)c2)cc1-c1cc(N2CCOCC2)c(OCC(F)F)nn1; 8.93
Cc1ncc(NC(=O)c2cc(C(F)(F)F)ccn2)cc1-c1cc(N2CCOCC2)c(S(C)(=O)=O)nn1; 8.26
CCOc1ccc(-c2cc(NC(=O)c3ccnc(C(C)(F)F)c3)cnc2C)nc1N1CCOCC1; 8.39

Which pIC50 is reported for this compound? Cc1ncc(NC(=O)c2ccnc(C(F)(F)F)c2)cc1-c1cc(NCCO)nc(N2CCOCC2)c1
8.36

So what does the record say about pIC50 for CCOc1cc(-c2cc(NC(=O)c3ccnc(C(C)(F)F)c3)cnc2C)cc(N2CCOCC2)n1 ?
8.74

Endpoint output: pIC50 of Cc1ncc(NC(=O)c2cnnc(C3CC3)c2)cc1-c1cc(N2CCOCC2)nc(N2CC(C)(O)C2)c1 . Value?
7.86

Need pIC50, item Cc1ncc(NC(=O)c2cnnc(C3(C#N)CC3)c2)cc1-c1cnc(OC2CCOCC2)c(N2CCOCC2)c1
8.41

Consider the compound shown here: Cc1ccc(NC(=O)c2ccnc(C(C)(C)O)c2)cc1-c1cc(N2CCOCC2)nc(N2CC(O)C2)c1 What is its recorded pIC50?
8.24

Which measured pIC50 value corresponds to Cc1ncc(NC(=O)c2cccc(S(C)(=O)=O)c2)cc1-c1cc(N2CCOCC2)nc(N2CC(O)C2)c1 ?
7.63

Name the recorded pIC50 for Cc1ccc(NC(=O)c2ccnc(C(F)(F)F)c2)cc1-c1c(F)c(NCCO)nc(N2CCOCC2)c1F .
7.89

Data request, read-out pIC50, for CCOc1cc(-c2cc(NC(=O)c3ccnc(C(C)(C)C#N)c3)cnc2C)cc(N2CCOCC2)n1
8.08

Could you tell me which pIC50 is on file for Cc1ccc(NC(=O)c2ccnc(C(F)F)c2)cc1-c1cc(NCCO)nc(N2CCOCC2)c1F ?
7.83

// returns reported pIC50 for input Cc1ccc(NC(=O)c2ccnc(C(F)(F)F)c2)cc1-c1cc(NC[C@@H](C)O)nc(N2CCOCC2)c1
8.63

Entry Cc1ncc(NC(=O)c2ccnc(C(C)(C)O)c2)cc1-c1cnc(OC(C)C)c(N2CCOCC2)c1 has what pIC50?
7.74

What value of measured pIC50 is listed for CCn1cc(C(=O)Nc2cnc(C)c(-c3cc(N4CCOCC4)nc(N4CCOCC4)c3)c2)cc(C(F)(F)F)c1=O ?
8.00

// returns reported pIC50 for input Cc1ncc(NC(=O)c2ccnc(C(C)(C)O)c2)cc1-c1cc(N2CCOCC2)c2nccn2c1
7.00

Any idea what its pIC50 is? The compound is Cc1ncc(NC(=O)c2ccnc(S(C)(=O)=O)c2)cc1-c1cc(N2CCOCC2)nc(N2CC(O)C2)c1
7.29

Find the recorded pIC50 belonging to Cc1ncc(NC(=O)c2cc(C(C)(C)C#N)ccn2)cc1-c1cnc(OC(C)C)c(N2CCOCC2)c1 and report it.
8.04

Item Cc1ccc(NC(=O)c2ccnc(C(C)(C)F)c2)cc1-c1cc(OCCO)nc(N2CCOCC2)c1 has what recorded pIC50?
8.79

The reported numbers originate from patent US9694016B2.
